# assay-details: Test 4: toxicity on adult F1 mice, IP
# test-settings: in vivo; 0.5 mg/mouse (25 mg/kg), IP; read-out: dead mice (converted)
readout: mortality (%)
Give bare numbers, in %.

What mortality value was documented for this molecule, CCN(CC)CCCNc1nccc2c(C)c3[nH]c4ccncc4c3cc12 ?
0

###

So I've got a bunch of molecules here, and I need their Activity (ratio of the LD50 of HUM to the LD50 of the product tested) values.
# Tested on: tumoral strain derived from the murine leukemia due to the C. FRIEND virus
# assay-details: Test 7: antitumoral activity in vitro on Friend leukemia tumoral strain
# Type: cell-based
# test-settings: HUM = 1
# Procedure: Test 7: Study of the antitumoral activity in vitro This activity was measured on a tumoral strain derived from the murine leukemia due to the C. FRIEND virus. The tumoral cells multiply in suspension in a "RPMI 1640" medium (Catalogue of GIBCO Bio-cult. Ltd. Washington Road, Sandyford Industrial Estate, PAISLEY PA 3 4EP, Renfrewshire, Scotland) supplemented with 20% of embryonary calf serum, penicillin and streptomycine. The duplication time of these cells is 11 hours. […]
Answers are plain numbers.

Examples with their reported Activity (ratio of the LD50 of HUM to the LD50 of the product tested) follow.
chemical-smiles | endpoint-result
CCN(CC)CCCNc1nccc2c(C)c3[nH]c4ccncc4c3cc12 | 20
Cc1c2ccncc2c(C)c2c1[nH]c1ccncc12 | 3
Cc1c2cc[nH]c(=O)c2cc2c1[nH]c1ccncc12 | 0.15
Cc1c2cc[n+](C)cc2c(C)c2c1[nH]c1cc[n+](C)cc12 | 0.2

Now for a further molecule.
Given the entry Cc1c2ccnc(Cl)c2cc2c1[nH]c1ccncc12 , report its measured Activity (ratio of the LD50 of HUM to the LD50 of the product tested).
0.3
